- STUDY TARGET: Histone deacetylase 3 (Homo sapiens)
- Sequence (O15379 whole entry): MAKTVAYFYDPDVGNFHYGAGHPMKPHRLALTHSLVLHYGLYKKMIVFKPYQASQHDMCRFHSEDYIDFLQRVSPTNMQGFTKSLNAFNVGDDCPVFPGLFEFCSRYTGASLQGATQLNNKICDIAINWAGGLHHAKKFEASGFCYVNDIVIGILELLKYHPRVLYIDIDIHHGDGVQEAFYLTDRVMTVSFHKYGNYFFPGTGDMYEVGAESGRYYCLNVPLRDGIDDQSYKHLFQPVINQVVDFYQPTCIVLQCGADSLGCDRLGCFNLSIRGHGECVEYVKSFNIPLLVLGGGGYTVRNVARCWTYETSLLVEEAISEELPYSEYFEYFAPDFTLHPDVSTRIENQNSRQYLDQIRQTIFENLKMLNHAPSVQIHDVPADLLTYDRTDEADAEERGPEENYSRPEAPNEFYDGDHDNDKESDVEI
- METHOD SUMMARY: Inhibition of HDAC3 in human HeLaS3 cells preincubated for 15 mins followed by HDAC-Glo substrate addition measured after 30 to 45 mins by ELISA
Entries and their IC50
Give the number; µM is assumed, so skip it.

Below, each entry is followed by its recorded IC50 result.
CCCCCC[C@@H](CCCCCC(=O)Nc1ccccc1)C(=O)NO; 530
CCCCCCC(CCCCCC(=O)Nc1ccccc1)C(=O)NO (centres undefined); 98
CCCCCC(CCCCCC(=O)Nc1ccccc1)C(=O)NO (centres undefined); 43

Here is another molecule to look at.
## Task Tell me its IC50 given O=C(CCCCCC(Cc1ccccc1)C(=O)NO)Nc1ccccc1 (centres undefined) as the entry.
## Result 91

---

- System: HeLa S3
- METHOD SUMMARY: Selectivity ratio of IC50 for HDAC3 in human HeLaS3 cells to IC50 for full length human C-terminal His-tag HDAC8 expressed in baculovirus expression system
READOUT TYPE: Ratio IC50

Below, each entry is followed by its recorded Ratio IC50 result.
O=C(CCCCCC(Cc1ccccc1)C(=O)NO)Nc1ccccc1 (centres undefined); 33 to 92
CCCCCC(CCCCCC(=O)Nc1ccccc1)C(=O)NO (centres undefined); 33 to 92
CCCCCCC(CCCCCC(=O)Nc1ccccc1)C(=O)NO (centres undefined); 49 to 300

Here is another molecule to look at.
## Task Tell me its Ratio IC50 given CCCCCC[C@@H](CCCCCC(=O)Nc1ccccc1)C(=O)NO as the entry.
## Result 106 to 187

---

- STUDY TARGET: UniProtKB Q13547
- Sequence (Q13547 whole entry): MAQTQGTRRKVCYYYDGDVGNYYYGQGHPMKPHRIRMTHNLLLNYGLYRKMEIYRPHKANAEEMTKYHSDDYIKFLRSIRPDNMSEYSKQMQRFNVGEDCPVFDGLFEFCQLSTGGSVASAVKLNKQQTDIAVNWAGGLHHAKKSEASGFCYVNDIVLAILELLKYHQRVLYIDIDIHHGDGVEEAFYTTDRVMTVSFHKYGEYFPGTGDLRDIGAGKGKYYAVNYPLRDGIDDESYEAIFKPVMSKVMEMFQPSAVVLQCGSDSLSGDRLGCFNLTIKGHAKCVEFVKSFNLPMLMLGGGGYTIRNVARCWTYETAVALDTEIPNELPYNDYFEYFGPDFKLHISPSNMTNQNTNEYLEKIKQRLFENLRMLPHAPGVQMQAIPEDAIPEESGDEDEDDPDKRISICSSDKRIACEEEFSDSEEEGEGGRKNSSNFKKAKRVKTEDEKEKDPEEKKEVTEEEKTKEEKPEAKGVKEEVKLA
- METHOD SUMMARY: Inhibition of HDAC1 in human HeLaS3 cells preincubated for 15 mins followed by HDAC-Glo substrate addition measured after 30 to 45 mins by ELISA
READOUT TYPE: pIC50
Entry type: numeric. Quantity: pIC50, the -log10 of concentration in molar units.

CCCCCC(CCCCCC(=O)Nc1ccccc1)C(=O)NO (centres undefined); 4.32
CCCCCC[C@@H](CCCCCC(=O)Nc1ccccc1)C(=O)NO; 3.48
CCCCCCC(CCCCCC(=O)Nc1ccccc1)C(=O)NO (centres undefined); 3.74

Here is another molecule to look at.
## Task Tell me its pIC50 given O=C(CCCCCC(Cc1ccccc1)C(=O)NO)Nc1ccccc1 (centres undefined) as the entry.
## Result 4.08

---

- STUDY TARGET: Histone deacetylase 2 (Homo sapiens, UniProt Q92769)
- Sequence (Q92769 whole entry): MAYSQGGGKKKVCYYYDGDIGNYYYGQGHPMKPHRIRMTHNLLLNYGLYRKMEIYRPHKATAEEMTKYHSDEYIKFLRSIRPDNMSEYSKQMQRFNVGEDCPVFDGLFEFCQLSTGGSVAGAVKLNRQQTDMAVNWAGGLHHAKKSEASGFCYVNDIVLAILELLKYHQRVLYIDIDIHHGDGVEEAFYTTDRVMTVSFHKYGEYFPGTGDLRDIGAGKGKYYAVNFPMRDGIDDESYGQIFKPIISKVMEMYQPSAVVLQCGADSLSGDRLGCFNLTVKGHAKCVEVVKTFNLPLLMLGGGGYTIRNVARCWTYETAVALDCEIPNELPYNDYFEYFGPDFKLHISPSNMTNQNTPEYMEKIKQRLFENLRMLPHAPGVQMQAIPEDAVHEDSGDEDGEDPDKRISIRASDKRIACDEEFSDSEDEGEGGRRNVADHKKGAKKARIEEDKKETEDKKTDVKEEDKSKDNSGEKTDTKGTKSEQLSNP
- METHOD SUMMARY: Inhibition of HDAC2 in human HeLaS3 cells preincubated for 15 mins followed by HDAC-Glo substrate addition measured after 30 to 45 mins by ELISA
Entries and their IC50
Give the number; µM is assumed, so skip it.

Below, each entry is followed by its recorded IC50 result.
CCCCCC[C@@H](CCCCCC(=O)Nc1ccccc1)C(=O)NO; 580
CCCCCCC(CCCCCC(=O)Nc1ccccc1)C(=O)NO (centres undefined); 180
O=C(CCCCCC(Cc1ccccc1)C(=O)NO)Nc1ccccc1 (centres undefined); 110

## Task Tell me its IC50 given CCCCCC(CCCCCC(=O)Nc1ccccc1)C(=O)NO (centres undefined) as the entry.
## Result 58

---

- STUDY TARGET: Protein deacetylase HDAC6 (Homo sapiens)
- Sequence (Q9UBN7 whole entry): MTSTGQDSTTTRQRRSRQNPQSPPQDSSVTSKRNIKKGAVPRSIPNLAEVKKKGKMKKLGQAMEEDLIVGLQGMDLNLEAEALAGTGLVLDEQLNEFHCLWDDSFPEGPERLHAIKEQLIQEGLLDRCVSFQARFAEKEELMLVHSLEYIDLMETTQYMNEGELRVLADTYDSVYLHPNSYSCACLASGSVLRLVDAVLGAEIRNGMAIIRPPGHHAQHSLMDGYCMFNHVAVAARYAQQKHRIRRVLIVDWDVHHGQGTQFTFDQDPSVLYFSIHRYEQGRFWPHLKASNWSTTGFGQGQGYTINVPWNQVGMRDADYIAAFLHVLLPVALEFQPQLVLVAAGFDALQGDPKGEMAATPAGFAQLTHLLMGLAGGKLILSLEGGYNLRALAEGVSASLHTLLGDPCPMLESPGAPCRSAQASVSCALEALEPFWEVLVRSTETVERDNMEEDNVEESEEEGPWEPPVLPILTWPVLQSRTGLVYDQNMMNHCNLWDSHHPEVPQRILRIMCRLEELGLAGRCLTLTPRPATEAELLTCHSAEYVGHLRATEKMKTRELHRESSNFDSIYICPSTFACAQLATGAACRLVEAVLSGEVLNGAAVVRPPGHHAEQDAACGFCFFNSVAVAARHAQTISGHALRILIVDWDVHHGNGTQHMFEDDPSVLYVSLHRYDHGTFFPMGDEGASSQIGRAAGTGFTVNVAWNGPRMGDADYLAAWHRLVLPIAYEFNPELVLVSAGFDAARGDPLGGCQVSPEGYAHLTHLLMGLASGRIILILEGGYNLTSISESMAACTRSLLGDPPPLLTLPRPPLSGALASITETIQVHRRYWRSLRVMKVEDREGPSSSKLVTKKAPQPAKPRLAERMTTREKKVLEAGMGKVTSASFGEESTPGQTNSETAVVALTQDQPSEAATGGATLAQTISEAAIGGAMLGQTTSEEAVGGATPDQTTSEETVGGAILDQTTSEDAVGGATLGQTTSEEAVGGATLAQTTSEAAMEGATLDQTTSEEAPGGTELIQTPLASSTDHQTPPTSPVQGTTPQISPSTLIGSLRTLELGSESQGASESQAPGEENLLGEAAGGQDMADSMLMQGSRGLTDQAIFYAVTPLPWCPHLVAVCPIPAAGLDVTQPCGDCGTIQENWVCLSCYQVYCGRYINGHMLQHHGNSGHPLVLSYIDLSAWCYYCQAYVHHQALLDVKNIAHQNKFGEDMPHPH
- METHOD SUMMARY: Inhibition of HDAC6 in human HeLaS3 cells preincubated for 15 mins followed by HDAC-Glo substrate addition measured after 30 to 45 mins by ELISA
READOUT TYPE: pIC50
Entry type: numeric. Quantity: pIC50, the -log10 of concentration in molar units.

Below, each entry is followed by its recorded pIC50 result.
CCCCCC(CCCCCC(=O)Nc1ccccc1)C(=O)NO (stereo not drawn); 6.07
O=C(CCCCCC(Cc1ccccc1)C(=O)NO)Nc1ccccc1 (stereo not drawn); 5.82

Here is another compound to look at.
## Task // output pIC50; input CCCCCCC(CCCCCC(=O)Nc1ccccc1)C(=O)NO (stereo not drawn) ; system Protein deacetylase HDAC6 (Homo sapiens)
## Result 6.22
